# Test: NCI Yeast Anticancer Drug Screen. Data for the mec2-1 strain (AID 157)
# Test parameters: S. cerevisiae mec2-1 strain, at 50.0 µM, active compounds read high
Compounds without any hit were thinned out: in the full panel of roughly 79,000, 15% have a hit. Active and inactive are the calls of the source. Rule as the data show it: active = growth inhibition above about 70%; inactive = the rest.
Listing: growth inhibition of selected compounds

query: Need growth inhibition of `Cc1ccc(I)cc1N=C=S` , thanks.
result: 56.9% (inactive)

query: Need growth inhibition of `CCNc1ccc2c(c1)C(=O)N(OS(C)(=O)=O)C2=O` , thanks.
result: 61% (inactive)

query: Need growth inhibition of `COc1ccc2c(c1)[nH]c1c(/C=C/c3ccccc3)nccc12` , thanks.
result: 92.1% (active)

query: Need growth inhibition of CN(Cc1cnc2nc(N)nc(N)c2n1)c1ccc(C(=O)NC(CCC(=O)O)C(=O)O)c2ccccc12 (stereo unspecified) , thanks.
result: 87.2% (active)

query: Need growth inhibition of `O=C(CCc1ccccc1)ON1C(=S)C(c2ccccc2)(c2ccccc2)N=C1Sc1ccccc1` , thanks.
result: 61% (inactive)

query: Need growth inhibition of `O=C(/C=N/O)Nc1cc(Cl)c(Cl)cc1Cl` , thanks.
result: 65% (inactive)

---

# Test: NCI Yeast Anticancer Drug Screen. Data for the mec2-1 strain (AID 157)
# Test parameters: S. cerevisiae mec2-1 strain, at 50.0 µM
This is part of a sample that, as a whole, favours compounds with a hit. Of some 79,000 tested, about 15% had one in any assay. Calls of active or inactive are those of the source. Rule as the data show it: active = growth inhibition above about 70%; inactive = the rest.
Thanks in advance; please answer with one of these: true (1) = active, false (0) = inactive

INSERT INTO assay_data (molecule, class_name) VALUES
  ('Nc1nc2c(c(=O)[nH]1)NC(CCNc1ccc(C(=O)O)cc1)CN2 (stereo not drawn)', 'false (0)'),
  ('O=c1[nH]cc(/C=N\Nc2ccccc2)c(=O)[nH]1', 'false (0)');

query: Which result was noted for this molecule in the test: `S=c1[nH]c2c(Cl)c(Cl)c(Cl)c(Cl)c2[nH]1`
result: true (1)

---

# Test: NCI Yeast Anticancer Drug Screen. Data for the CLN2oe strain (AID 163);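 also: 0% = growth of vehicle-only control cultures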
# Test parameters: S. cerevisiae CLN2oe strain, at 33.0 µM, active compounds read high
Compounds without any hit were thinned out: in the full panel of roughly 79,000, 15% have a hit.
Quick rule: growth inhibition of at least 50% means yes (1), below that means no (0).

See these solved cases before continuing.
INSERT INTO measurements (molecule, class_name) VALUES
  ('CCc1[nH]nc(C(N)=O)c1N=NN(C)C', 'no (0)'),
  ('COC(=O)/C=C1/OC(c2ccc(Br)cc2)=C(Br)C1=O', 'no (0)'),
  ('O=[N+]([O-])c1c(/C=N/Nc2ccccc2)oc(-c2ccc3c(c2)OCO3)c1-c1ccc2c(c1)OCO2', 'no (0)'),
  ('Cc1nc2c(ncn2CCO)c(=O)[nH]1', 'no (0)'),
  ('O=C1OC2C(O)COC2(OCc2c[nH]c3ccccc23)C1O (configuration not stated) (tested in a mixture with another compound)', 'no (0)');

query: Tell me whether growth inhibition is at least 50% here: `CCOC(=O)[C@]1(Br)CC[C@@]1(Br)C(=O)OCC`
result: yes (1)

query: Tell me whether growth inhibition is at least 50% here: `C=C(C)[C@@H]1CCc2c(O)c(O)c(=O)cc(C)c2C1`
result: yes (1)

---

# Test: NCI Yeast Anticancer Drug Screen. Data for the sgs1 strain (AID 173);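 also: 0% = growth of vehicle-only control cultures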
# Test parameters: S. cerevisiae sgs1 mutant, at 100.0 µM
The panel holds about 79,000 compounds, 15% with a hit somewhere; the sample as a whole holds those more often. Activity calls are given as the source filed them. Cut-off read from the data, not from the text of the source: active = growth inhibition above about 70%; inactive = the rest.
Thanks in advance; please answer with one of these: t = active, f = inactive

query: Which result was noted for this compound in the test: `COc1cc(CNc2ccc(C(C)C)cc2)cc(OC)c1OC`
result: t

query: Which result was noted for this compound in the test: `C/C=C/[P+](c1ccccc1)(c1ccccc1)c1ccccc1`
result: t

query: Which result was noted for this compound in the test: `COc1ccc(S(=O)(=O)N/N=C\c2cc([N+](=O)[O-])cc(I)c2O)c(OC)c1OC`
result: t

query: Which result was noted for this compound in the test: CCC(=O)N(c1ccccc1)C(C)CN1CCC(O)(c2cccc(C(F)(F)F)c2)CC1 (centres undefined)
result: t

---

# Test: NCI Yeast Anticancer Drug Screen. Data for the sgs1 strain (AID 173);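 also: 0% = growth of vehicle-only control cultures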
# Test parameters: S. cerevisiae sgs1 mutant, at 1.2 µM, active compounds read high
Compounds without any hit were thinned out: in the full panel of roughly 79,000, 15% have a hit.
Listing: growth inhibition of selected molecules
Use % as the unit, but write only the number.

INSERT INTO results (molecule, test_result) VALUES
  ('NC(=O)N1c2ccccc2C=Cc2ccccc21', -78),
  ('CC1C(C#N)(C#N)C(C#N)=C(N)C1(Cl)[N+](=O)[O-] (stereo not drawn)', 28);

query: Need growth inhibition of `C=Cc1cnc([N+](=O)[O-])n1C` , thanks.
result: 22

query: Need growth inhibition of `CC(=O)C1=C(C)O/C(=C/c2cccc(Cl)c2)C1=O` , thanks.
result: 2

query: Need growth inhibition of `CCCCCCCCCCCc1nc(N)n[nH]1` , thanks.
result: -5

query: Need growth inhibition of CC1(C)C(C=O)=CCC1CC(N)=O (stereo not drawn) , thanks.
result: -1

---

# Test: NCI Yeast Anticancer Drug Screen. Data for the rad50EPP+ strain (AID 151);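 also: 0% = growth of vehicle-treated control cultures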
# Test parameters: S. cerevisiae rad50 mutant strain, at 11.0 µM, active compounds read high
About 79,000 compounds went through this panel and 15% of them were active in at least one assay; those are over-represented in the sample as a whole.
Attribute measured: growth inhibition (%)
Use % as the unit, but write only the number.

INSERT INTO results (smiles_notation, units_of_measure, test_result) VALUES
  ('O=[N+]([O-])/C(C(Cl)=C(Cl)Cl)=C1/OCCS1', '%', 61),
  ('CCC(=O)Oc1ccc(/C=N/NC(N)=S)nc1', '%', -9),
  ('ClCCn1c(CCl)nc2ccc(Cl)cc21', '%', 9),
  ('CCOc1ccc(C(=O)CCC(=O)O)c(C)c1', '%', 0),
  ('CC[C@@]1(OC(=O)CCC(=O)O)C(=O)OCc2c1cc1n(c2=O)Cc2cc3ccccc3nc2-1', '%', 79),
  ('COC(=O)c1cccc(C)c1C(=O)c1c(C)cc(C)cc1C', '%', 5),
  ('CC(=O)CC(=O)/C=C/c1cccs1', '%', 33);

Field: next compound
query: Need growth inhibition of `On1cnc(=S)c2[nH]cnc21` , thanks.
result: -11

---

# Test: NCI Yeast Anticancer Drug Screen. Data for the wt1 strain (AID 149);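 also: 0% = growth of vehicle-treated wt1 cultures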
# Test parameters: S. cerevisiae wt1 strain (SPY 50644) growth inhibition; at 1.2 µM; active compounds read high
Compounds without any hit were thinned out: in the full panel of roughly 79,000, 15% have a hit.
Attribute measured: growth inhibition (%)
Use % as the unit, but write only the number.

INSERT INTO results (compound, units_of_measure, test_result) VALUES
  ('O=C1c2cccc3cc([N+](=O)[O-])cc(c23)C(=O)N1CCN1CCCC1', '%', 8),
  ('O=C1C(Cl)=C(Cl)C(Cl)(Cl)C(Cl)C1(Cl)Cl (stereo not given)', '%', 2),
  ('O=C(CNS(=O)(=O)Cc1ccccc1)NNc1ccccc1', '%', -1);

query: Need growth inhibition of `COc1ccc(N)c2c1C(=O)c1ccccc1C2=O` , thanks.
result: 0

query: Need growth inhibition of `O=C1C=CC(=O)N1c1ccc2c(c1)OCO2` , thanks.
result: 9

---

# Test: NCI Yeast Anticancer Drug Screen. Data for the rad50 strain (AID 155);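 also: 0% = growth of vehicle-only cultures of the same strain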
# Test parameters: S. cerevisiae rad50 strain growth inhibition; at 1.2 µM; active compounds read high
The panel holds about 79,000 compounds, 15% with a hit somewhere; the sample as a whole holds those more often. Residues, ends and D or L forms follow the SMILES beside them. *: point of attachment. CH2Cl = ClC*
Attribute measured: growth inhibition (%)
Use % as the unit, but write only the number.

Example results:
INSERT INTO measurements (molecule, test_result) VALUES
  ('CC1(C)C(C=O)=CCC1CC(N)=O (stereo unspecified)', -1),
  ('O=S1(=O)c2ccccc2N=C(c2ccccc2Cl)CC1c1ccc(F)cc1 (stereo unspecified)', -39),
  ('Cc1ccc(S(=O)(=O)N(C)c2ccc(Cl)cc2C2=NCCc3ccccc32)cc1', 0),
  ('CC(=O)NC(CC(C)C)C(=O)NC(Cc1ccccc1)C(=O)CCl (stereo not drawn) (Ac-Leu-Phe-CH2Cl; configuration not given here)', -3),
  ('CCCCC(=O)c1c(O)nc2sccn2c1=O', 14);

query: Need growth inhibition of `COc1ccc(S(=O)(=O)N/N=C\c2cc([N+](=O)[O-])cc(I)c2O)c(OC)c1OC` , thanks.
result: -7

These entries and their values trace back to PubChem BioAssay (NCI).
